Read-out: Macrophage colony-stimulating factor (MCSF), CSF1 (gene 1435)
TEST_PROTOCOL: BSK_hDFCGF_MCSF: BioMAP Diversity Plus: hDFCGF Assay for Macrophage colony-stimulating factor (MCSF) Biomarker Activity (AID 2283060)
CONDITION: primary human foreskin fibroblasts; actives raise or lower the signal
Calls of active or inactive are those of the source. The calls were made as follows: active = hit-call score of the fitted dose curve at least 0.9, where 1 is the maximum; inactive = score below 0.9.
Hi! Could you answer with just one of these? true (1) (active), false (0) (inactive)

MOLECULE: C=CC(=O)OCC(Br)CBr (stereo not drawn)
CATEGORY_LABEL: true (1)
--
MOLECULE: O=C1CCCN1CCO
CATEGORY_LABEL: false (0)
--
MOLECULE: N#[N+]c1ccc2c(S(=O)(=O)[O-])cccc2c1O
CATEGORY_LABEL: false (0)
--
MOLECULE: CCCCC/C=C\C/C=C\CCCCCCCC(=O)OC
CATEGORY_LABEL: true (1)

Enquiry: GET /call?item= CC(C)(c1cc(Br)c(OCCO)c(Br)c1)c1cc(Br)c(OCCO)c(Br)c1 returns the recorded outcome of this test.
Return: true (1)

Enquiry: So what was the verdict on C/C=C\C/C=C/CCCCCCCCOC(C)=O in this test?
Return: true (1)

Enquiry: Hi, sorry to bother you, what did the test record for CCCCNc1ccc(NCCCC)c2c1C(=O)c1ccccc1C2=O ?
Return: false (0)

Enquiry: Just curious, what result did CCOc1nc(F)cc2nc(S(=O)(=O)Nc3c(Cl)cccc3C(=O)OC)nn12 get here?
Return: false (0)

Enquiry: I would be grateful if you could indicate the recorded call for O=C(Nc1ccccc1SSc1ccccc1NC(=O)c1ccccc1)c1ccccc1 .
Return: false (0)

Enquiry: What outcome does the record of this test show for CCO[Si](CCCN=C=O)(OCC)OCC ?
Return: false (0)

Enquiry: What is the recorded call for this molecule in the test? S=C(NC1CCCCC1)NC1CCCCC1
Return: false (0)

Enquiry: Could you kindly confirm the outcome this assay logged for CCCCC(CC)COC(=O)c1ccccc1O (stereo not drawn) ?
Return: true (1)

Enquiry: Given C=CCOCC(O)CCl (stereo not drawn) , state the outcome it received in this test.
Return: false (0)
